tested on: A498; conditions: read-out: 50% lethal concentration (LC50); A498, Renal
readout.type: CC50 (µM)
Numbers only, in µM.

Answered cases to consult:
C=C1CCC2C3(C)COC(c4cn(-c5ccccc5)nc4-c4ccc(Br)cc4)OC3CCC2(C)C1CC=C1C(=O)OCC1O (centres unmarked) : 53.6
C=C1CCC2C3(C)COC(c4cn(-c5ccccc5)nc4-c4ccc(C)cc4)OC3CCC2(C)C1CC=C1C(=O)OCC1O (centres unmarked) : 48.8
C=C1CCC2C3(C)COC(c4cn(-c5ccccc5)nc4-c4ccc(Cl)cc4)OC3CCC2(C)C1CC=C1C(=O)OCC1O (centres unmarked) : 53.7

Task item: GET /values?readout=CC50&system=A498&item= C=C1CCC2C3(C)COC(c4cn(-c5ccccc5)nc4-c4cccc(Br)c4)OC3CCC2(C)C1CC=C1C(=O)OCC1O (centres unmarked)
Reply: 44

----------
Assign CC50 to each entry below.
tested on: OVCAR-8; settings: read-out: 50% lethal concentration (LC50); OVCAR-8, Ovarian

# example entries with known answers
C=C1CCC2C3(C)COC(c4cn(-c5ccccc5)nc4-c4cccc(Cl)c4)OC3CCC2(C)C1CC=C1C(=O)OCC1O (stereo not drawn) [1d] : > 100 µM
C=C1CCC2C3(C)COC(c4cn(-c5ccccc5)nc4-c4ccc(Cl)cc4)OC3CCC2(C)C1CC=C1C(=O)OCC1O (stereo not drawn) [1g] : > 100 µM

Now examine the next entry.
Task item: Entry C=C1CCC2C3(C)COC(c4cn(-c5ccccc5)nc4-c4cccc(Br)c4)OC3CCC2(C)C1CC=C1C(=O)OCC1O (stereo not drawn) [1e] : reported CC50 = ?
Reply: > 100 µM

----------
system: HT29; details: HT29, Colon
readout.type: Total growth inhibition (TGI) (µM)
Numbers only, in µM.

C=C1CCC2C3(C)COC(c4cn(-c5ccccc5)nc4-c4cccc(F)c4)OC3CCC2(C)C1CC=C1C(=O)OCC1O (stereo not shown) : 4.51

Field: Total growth inhibition (TGI). Fill in for each record below.
1. C=C1CCC2C3(C)COC(c4cn(-c5ccccc5)nc4-c4ccc(Cl)cc4)OC3CCC2(C)C1CC=C1C(=O)OCC1O (stereo not shown)
2. C=C1CCC2C3(C)COC(c4cn(-c5ccccc5)nc4-c4ccc(Br)cc4)OC3CCC2(C)C1CC=C1C(=O)OCC1O (stereo not shown)
3. C=C1CCC2C3(C)COC(c4cn(-c5ccccc5)nc4-c4ccc(F)cc4)OC3CCC2(C)C1CC=C1C(=O)OCC1O (stereo not shown)

Reply:
4.64
6.51
7.63

----------
So I've got a bunch of compounds here, and I need their CC50 values.
tested on: NCI/ADR-RES; details: read-out: 50% lethal concentration (LC50), Ovarian

C=C1CCC2C3(C)COC(c4cn(-c5ccccc5)nc4-c4cccc(Cl)c4)OC3CCC2(C)C1CC=C1C(=O)OCC1O (stereo not drawn) : > 100 µM
C=C1CCC2C3(C)COC(c4cn(-c5ccccc5)nc4-c4cccc(Br)c4)OC3CCC2(C)C1CC=C1C(=O)OCC1O (stereo not drawn) : > 100 µM

Moving on to another compound below.
Task item: Given C=C1CCC2C3(C)COC(c4cn(-c5ccccc5)nc4-c4ccc(OC)cc4)OC3CCC2(C)C1CC=C1C(=O)OCC1O (stereo not drawn) , state its recorded CC50.
Reply: > 100 µM
